# run_conditions: 298 K; 101.33 kPa; Liquid
observable: viscosity (mPa·s)
Give bare numbers, in mPa·s.

- molecule: "CCOS(=O)(=O)[O-].CC[n+]1ccccc1 [1-ethylpyridinium ethyl sulfate]"
  viscosity / mPa·s: 137
- molecule: "CCCCCC[n+]1ccccc1.O=S(=O)([N-]S(=O)(=O)C(F)(F)F)C(F)(F)F [1-hexylpyridinium bis(trifluromethylsulfonyl)imide]"
  viscosity / mPa·s: 80
- molecule: "CCOC(=O)c1ccc[n+](CC)c1.CCOS(=O)(=O)[O-] [3-(ethoxycarbonyl)-1-ethylpyridinium ethylsulfate]"
  viscosity / mPa·s: 3173

Can you give me viscosity for all of these, one by one?
1. CC(=O)[O-].CCCCn1cc[n+](C)c1 [1-butyl-3-methylimidazolium acetate]
2. CCCCCCn1cc[n+](C)c1C.O=S(=O)([N-]S(=O)(=O)C(F)(F)F)C(F)(F)F

1: 440; 2: 131

* * *

# run_conditions: Glass
observable: Glass transition temperature (°C)
One number for each entry, in °C.

Examples from the recorded data:
- molecule: "CCCC[n+]1cccc(C)c1.[Br-] [1-butyl-3-methylpyridinium bromide]"
  Glass transition temperature / °C: -36
- molecule: "CCCCCC[n+]1cccc(C)c1.O=S(=O)([N-]S(=O)(=O)C(F)(F)F)C(F)(F)F"
  Glass transition temperature / °C: -82
- molecule: "CCCCn1cc[n+](C)c1.COCCOCCOS(=O)(=O)[O-] [1-butyl-3-methylimidazolium 2-(2-methoxyethoxy)ethyl sulfate]"
  Glass transition temperature / °C: -62
- molecule: "CCCC[n+]1cccc(C)c1.O=S(=O)([N-]S(=O)(=O)C(F)(F)F)C(F)(F)F"
  Glass transition temperature / °C: -84
- molecule: "CCCC[n+]1cc(C)cc(C)c1.[Br-] [1-butyl-3,5-dimethylpyridinium bromide]"
  Glass transition temperature / °C: -24
- molecule: "CCCCCCCC[n+]1ccn(C)c1.F[B-](F)(F)F [1-methyl-3-octylimidazolium tetrafluoroborate]"
  Glass transition temperature / °C: -81

Give Glass transition temperature for each listed item.
1. CCCCCC[n+]1ccc(N(C)C)c(C)c1.[Br-] [4-(dimethylamino)-1-hexyl-3-methylpyridinium bromide]
2. CCCCCC[n+]1cc(C)cc(C)c1.O=S(=O)([N-]S(=O)(=O)C(F)(F)F)C(F)(F)F
3. CCCC[n+]1cccc(C)c1.F[B-](F)(F)F [1-butyl-3-methylpyridinium tetrafluoroborate]
4. CCOC(=O)c1ccc[n+](CC)c1.CCOS(=O)(=O)[O-] [3-(ethoxycarbonyl)-1-ethylpyridinium ethylsulfate]
5. CCCCCCn1cc[n+](C)c1.F[B-](F)(F)F [1-hexyl-3-methylimidazolium tetrafluoroborate]
6. CCCCCC[n+]1ccn(C)c1.O=S(=O)([N-]S(=O)(=O)C(F)(F)F)C(F)(F)F
7. CCCCCCCCn1cc[n+](C)c1.O=S(=O)([N-]S(=O)(=O)C(F)(F)F)C(F)(F)F

-2
-76
-76
-44
-79
-84
-84

Dear colleague, could you send me Glass transition temperature for each of the items below? Thanks.
1. CCCCCC[n+]1ccccc1.O=S(=O)([N-]S(=O)(=O)C(F)(F)F)C(F)(F)F [1-hexylpyridinium bis(trifluromethylsulfonyl)imide]
2. CCCCCCn1cc[n+](C)c1.[Br-] [3-hexyl-1-methyl-1H-imidazolium bromide]

[-77, -49]

* * *

# run_conditions: Crystal
observable: Triple point temperature (K)
Answers are plain numbers, in K.

- compound: "CCCCCC[n+]1ccc(N(C)C)c(C)c1.[Br-] [4-(dimethylamino)-1-hexyl-3-methylpyridinium bromide]"
  value_units: "K"
  Triple point temperature: 392
- compound: "CCCCCC[n+]1ccccc1.O=S(=O)([N-]S(=O)(=O)C(F)(F)F)C(F)(F)F [1-hexylpyridinium bis(trifluromethylsulfonyl)imide]"
  value_units: "K"
  Triple point temperature: 273

For each entry beneath this line, provide reported Triple point temperature.
1. CCCC[n+]1cc(C)cc(C)c1.[Br-] [1-butyl-3,5-dimethylpyridinium bromide]
2. CCCCCC[n+]1cc(C)cc(C)c1.O=S(=O)([N-]S(=O)(=O)C(F)(F)F)C(F)(F)F

1: 368; 2: 283

* * *

# run_conditions: 323 K; 101.33 kPa; Liquid
± gives the expanded uncertainty stated by the source.
observable: viscosity

Solved cases (3 shown):
- compound: "CCOS(=O)(=O)[O-].CC[n+]1cccc(C)c1 [1-ethyl-3-methylpyridinium ethylsulfate]"
  viscosity: "45 ± 2 mPa·s"
- compound: "CCOS(=O)(=O)[O-].CC[n+]1ccccc1 [1-ethylpyridinium ethyl sulfate]"
  viscosity: "43 ± 2 mPa·s"
- compound: "CCCCCCCCCCCCCC[N+](C)(CCOCCOCCOCCOCCOCCO)CCOCCOCCOCCOCCOCCO.COS(=O)(=O)[O-]"
  viscosity: "511 ± 98 mPa·s"

List reported viscosity for each of these compounds:
1. CCCCn1cc[n+](C)c1.COCCOCCOS(=O)(=O)[O-] [1-butyl-3-methylimidazolium 2-(2-methoxyethoxy)ethyl sulfate]
2. CCCCCC[n+]1ccn(C)c1.O=S(=O)([N-]S(=O)(=O)C(F)(F)F)C(F)(F)F
3. CCCCn1cc[n+](C)c1.O=C([O-])C(F)(F)F [1-butyl-3-methylimidazolium trifluoroacetate]
4. CCOC(=O)c1ccc[n+](CC)c1.CCOS(=O)(=O)[O-] [3-(ethoxycarbonyl)-1-ethylpyridinium ethylsulfate]

228 ± 17 mPa·s
26 ± 1 mPa·s
26 ± 1 mPa·s
405 ± 40 mPa·s

* * *

# run_conditions: 323 K; 101.33 kPa; Liquid
Each entry gets Not fulfilled if its viscosity stays under 40 mPa·s, and Fulfilled if its viscosity is 40 mPa·s or above.

Field: example entries. Status: answers known.
- molecule: "CCCC[n+]1cccc(C)c1.F[B-](F)(F)F [1-butyl-3-methylpyridinium tetrafluoroborate]"
  qualitative_label: "Fulfilled"
- molecule: "CCCC[n+]1cccc(C)c1.O=S(=O)([N-]S(=O)(=O)C(F)(F)F)C(F)(F)F"
  qualitative_label: "Not fulfilled"
- molecule: "CCCCCC[n+]1cccc(C)c1.O=S(=O)([N-]S(=O)(=O)C(F)(F)F)C(F)(F)F"
  qualitative_label: "Not fulfilled"
- molecule: "CCCCCCn1cc[n+](C)c1C.O=S(=O)([N-]S(=O)(=O)C(F)(F)F)C(F)(F)F"
  qualitative_label: "Fulfilled"

// switching to the query molecule
Is it the case that CC(=O)[O-].CCCCn1cc[n+](C)c1 [1-butyl-3-methylimidazolium acetate] has viscosity reaching or exceeding 40 mPa·s?
Fulfilled

* * *

# run_conditions: 323 K; 101.33 kPa; Liquid
Numbers after ± are expanded uncertainties.
observable: viscosity
Answer format reminder: number followed by unit.

- molecule: "CCn1cc[n+](C)c1.O=S(=O)([N-]S(=O)(=O)C(F)(F)F)C(F)(F)F"
  viscosity: "15 ± 1 mPa·s"
- molecule: "CCCCCC[n+]1cc(C)cc(C)c1.O=S(=O)([N-]S(=O)(=O)C(F)(F)F)C(F)(F)F"
  viscosity: "35 ± 2 mPa·s"

In the following, a different molecule is considered.
Item CCCCCC[n+]1ccccc1.O=S(=O)([N-]S(=O)(=O)C(F)(F)F)C(F)(F)F [1-hexylpyridinium bis(trifluromethylsulfonyl)imide] : provide viscosity
29 ± 2 mPa·s

* * *

# protocol_summary: molar heat capacity at constant pressure
# run_conditions: 323 K; 101.33 kPa; Liquid; Large sample (1 g) DSC
Answer each item with its documented molar heat capacity at constant pressure.
Numbers only, in J/K/mol.

Recorded molar heat capacity at constant pressure, per entry:
- compound: "CCOS(=O)(=O)[O-].CC[n+]1cccc(C)c1 [1-ethyl-3-methylpyridinium ethylsulfate]"
  molar heat capacity at constant pressure (J/K/mol): 402
- compound: "CCCCCC[n+]1ccccc1.O=S(=O)([N-]S(=O)(=O)C(F)(F)F)C(F)(F)F [1-hexylpyridinium bis(trifluromethylsulfonyl)imide]"
  molar heat capacity at constant pressure (J/K/mol): 632
- compound: "CCCCCCn1cc[n+](C)c1.[Br-] [3-hexyl-1-methyl-1H-imidazolium bromide]"
  molar heat capacity at constant pressure (J/K/mol): 357

List reported molar heat capacity at constant pressure for each of these compounds:
1. CCCCCC[n+]1cc(C)cc(C)c1.O=S(=O)([N-]S(=O)(=O)C(F)(F)F)C(F)(F)F
2. CCCCCCCCCCCCCC[N+](C)(CCOCCOCCOCCOCCOCCO)CCOCCOCCOCCOCCOCCO.COS(=O)(=O)[O-]
3. CCCCCC[n+]1cccc(C)c1.O=S(=O)([N-]S(=O)(=O)C(F)(F)F)C(F)(F)F
4. CCCC[n+]1cccc(C)c1.F[B-](F)(F)F [1-butyl-3-methylpyridinium tetrafluoroborate]

1. 665
2. 1098
3. 644
4. 421

* * *

# run_conditions: 343 K; 101.33 kPa; Liquid
observable: viscosity (mPa·s)
Numbers only, in mPa·s.

Examples from the recorded data:
- compound: "CCCCCCn1cc[n+](C)c1C.O=S(=O)([N-]S(=O)(=O)C(F)(F)F)C(F)(F)F"
  value_units: "mPa·s"
  measured_value: 22
- compound: "CCCC[n+]1cccc(C)c1.F[B-](F)(F)F [1-butyl-3-methylpyridinium tetrafluoroborate]"
  value_units: "mPa·s"
  measured_value: 23
- compound: "CCCC[n+]1cccc(C)c1.O=S(=O)([N-]S(=O)(=O)C(F)(F)F)C(F)(F)F"
  value_units: "mPa·s"
  measured_value: 14
- compound: "CCCCCC[n+]1ccn(C)c1.O=S(=O)([N-]S(=O)(=O)C(F)(F)F)C(F)(F)F"
  value_units: "mPa·s"
  measured_value: 15
- compound: "CCCCCCCCCCCCCC[N+](C)(CCOCCOCCOCCOCCOCCO)CCOCCOCCOCCOCCOCCO.COS(=O)(=O)[O-]"
  value_units: "mPa·s"
  measured_value: 187
- compound: "CCCCCC[n+]1ccccc1.O=S(=O)([N-]S(=O)(=O)C(F)(F)F)C(F)(F)F [1-hexylpyridinium bis(trifluromethylsulfonyl)imide]"
  value_units: "mPa·s"
  measured_value: 16
- compound: "CCCCn1cc[n+](C)c1.COCCOCCOS(=O)(=O)[O-] [1-butyl-3-methylimidazolium 2-(2-methoxyethoxy)ethyl sulfate]"
  value_units: "mPa·s"
  measured_value: 98
- compound: "CCOS(=O)(=O)[O-].CC[n+]1cccc(C)c1 [1-ethyl-3-methylpyridinium ethylsulfate]"
  value_units: "mPa·s"
  measured_value: 23

Hi! Can you tell me viscosity for each of these compounds?
1. CC(=O)[O-].CCCCn1cc[n+](C)c1 [1-butyl-3-methylimidazolium acetate]
2. CCn1cc[n+](C)c1.O=S(=O)([N-]S(=O)(=O)C(F)(F)F)C(F)(F)F
3. CCCCn1cc[n+](C)c1.O=C([O-])C(F)(F)F [1-butyl-3-methylimidazolium trifluoroacetate]
4. CCCCCC[n+]1cccc(C)c1.O=S(=O)([N-]S(=O)(=O)C(F)(F)F)C(F)(F)F
5. CCOC(=O)c1ccc[n+](CC)c1.CCOS(=O)(=O)[O-] [3-(ethoxycarbonyl)-1-ethylpyridinium ethylsulfate]
6. CCOS(=O)(=O)[O-].CC[n+]1ccccc1 [1-ethylpyridinium ethyl sulfate]
7. CCCCCC[n+]1cc(C)cc(C)c1.O=S(=O)([N-]S(=O)(=O)C(F)(F)F)C(F)(F)F

42
9
15
16
130
23
18
